target: UniProt P19099; assay: Inhibition of human CYP11B2 at 0.2 uM using [4-14C]-11-dexycorticosterone as a substrate; settings: probe [4-14C]-11-dexycorticosterone
Sequence (P19099 whole entry): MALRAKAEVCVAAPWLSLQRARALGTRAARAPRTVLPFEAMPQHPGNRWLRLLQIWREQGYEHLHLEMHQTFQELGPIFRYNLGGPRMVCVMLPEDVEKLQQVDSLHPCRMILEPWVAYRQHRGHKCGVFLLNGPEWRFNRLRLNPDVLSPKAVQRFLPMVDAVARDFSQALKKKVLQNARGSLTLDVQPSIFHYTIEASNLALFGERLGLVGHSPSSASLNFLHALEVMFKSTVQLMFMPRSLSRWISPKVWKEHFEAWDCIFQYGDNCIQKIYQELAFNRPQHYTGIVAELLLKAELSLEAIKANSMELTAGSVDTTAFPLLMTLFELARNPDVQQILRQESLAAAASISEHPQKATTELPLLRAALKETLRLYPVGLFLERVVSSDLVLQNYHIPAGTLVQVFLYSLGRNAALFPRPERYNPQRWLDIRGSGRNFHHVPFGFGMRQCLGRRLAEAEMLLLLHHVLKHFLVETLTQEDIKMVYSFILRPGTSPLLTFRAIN
observation.type: inhibition at 0.2 µM (%)

A. CCC(c1ccc(-c2ccc(F)cc2)cc1)n1ccnc1 (configuration not stated)
B. CC(c1ccc2c(c1)Cc1cc(O)ccc1-2)n1ccnc1 (configuration not stated)
Qu. Returns the identifier with the smallest measured inhibition at 0.2 µM among A and B . The response must carry the label of the picked entry.
Ans. A
(A: 66%, B: 98%)

* * *

assay: Terminal half life in Wistar rat at 50 mg/kg, po; type: ADME, organism-based; design: dose 50 mg/kg, route oral; details: in vivo
observation.type: half-life (h)
The reply should contain only the number, in h.

half-life reading for CCC(c1ccc(-c2ccc(F)cc2)cc1)n1ccnc1 (stereo unspecified) : 10
